Attribution: patent US20120020940A1

tested on: Pseudomonas corrugata; experiment: MIC and lethal concentration (Example 3); assay type: cell-based; conditions: 1-2 days at 25° C., Table 2
No end group written: not given here.
Recorded MIC (>90% inhibition) by entry
# output: bare number, implied unit µg/mL

LRFLRRILRRLL-NH2 [SP10-8]	0.5

Query: Please report the measured MIC (>90% inhibition) for LRFARRALRRLF-NH2 [SP10-9]
Response: 0.5

Query: Please report the measured MIC (>90% inhibition) for LRFAKKALKKLF-NH2 [SP10-3]
Response: 1.0

Query: Please report the measured MIC (>90% inhibition) for LRFLKKILKHLF-NH2 [SP10, LRFLKKILKHLF -NH2]
Response: 0.5

Query: Please report the measured MIC (>90% inhibition) for LRIIKKILKKLI-NH2 [SP10-5]
Response: 0.5

----------
Recorded MIC (>90% inhibition) by entry
tested on: Pseudomonas syringae pv. syringae; assay: MIC and lethal concentration (Example 3); assay type: cell-based; conditions: 1-2 days at 25° C., Table 2
No end group written: not given here.
# output: bare number, implied unit µg/mL

// solved cases for MIC (>90% inhibition) follow
LRFLKKILKHLF-NH2 [SP10, LRFLKKILKHLF -NH2]	0.5
LRFLKKALKKLF-NH2 [SP10-2]	0.1
LRFARRALRRLF-NH2 [SP10-9]	0.25
LRKAKKIAKKLF-NH2 [SP10-11]	0.1
LRKLKKILKKLF-NH2 [SP10-10]	0.25
LRFAKKALKKLF-NH2 [SP10-3]	0.25

Query: Please report the measured MIC (>90% inhibition) for LRFIKKILKKLI-NH2 [SP10-4]
Response: 0.25

----------
Recorded LC, lethal concentration (100% inhibition) by entry
tested on: Pseudomonas corrugata; assay: MIC and lethal concentration (Example 3); type: cell-based; conditions: at least 4 days of incubation, Table 2
No end group written: not given here.

// solved cases for LC, lethal concentration (100% inhibition) follow
LRKLKKILKKLF-NH2 [SP10-10]	0.25/0.25 μg/ml
LRFIKKILKKLI-NH2 [SP10-4]	2.5/2.5 μg/ml
LRFLKKILKHLF-NH2 [SP10, LRFLKKILKHLF -NH2]	1.0 µg/mL
LRFLKKALKKLF-NH2 [SP10-2]	0.5/0.5 μg/ml
LRIIRRILRRLI-NH2 [SP10-6]	2.5/2.5 μg/ml
LRFLRRILRRLL-NH2 [SP10-8]	1.0 µg/mL
LRFARRALRRLF-NH2 [SP10-9]	2.5 µg/mL
LRFLKKILKKLF-NH2 [SP10-1]	2.5/2.5 μg/ml
LRKAKKIAKKLF-NH2 [SP10-11]	0.5/0.5 μg/ml
LRIIKKILKKLI-NH2 [SP10-5]	2.5 µg/mL

Query substance follows.
Query: Please report the measured LC, lethal concentration (100% inhibition) for LRILRRLLRRLF-NH2 [SP10-7]
Response: 2.5/2.5 μg/ml

----------
Test system: human immundeficiency virus (HIV)
Format: cell-based
Settings: HeLa cells LC5-RIC pre-incubated 30 min with peptide, read after 72 h; read-out: IC50, concentration where the infection is decreased by 50% (compared to non-treated controls)
Description: To measure the activity of the designed oligopeptides against human immundeficiency virus (HIV) a fluorescence-based reporter system was used. HeLa cells (LC5-RIC) harbour a reporter gene, which regulates in dependency of HIV Rev and Tat proteins the synthesis of a red fluorescing protein. In this way the infection of the HeLa cells (LC5-RIC) is indicated and the infection rate can be quantified using a fluorescence microplate reader. […]
No end group written: not given here.
Readout: IC50
Write the quantity with the unit trailing the number.

Query: Please report the measured IC50 for LRKAKKIAKKLF-NH2 [SP10-11]
Response: 6.8 µM

----------
Recorded LC, lethal concentration (100% inhibition) by entry
tested on: Pseudomonas syringae pv. tomato; assay: MIC and lethal concentration (Example 3); type: cell-based; conditions: at least 4 days of incubation, Table 2
No end group written: not given here.

// solved cases for LC, lethal concentration (100% inhibition) follow
LRILRRLLRRLF-NH2 [SP10-7]	1.0 µg/mL
LRFLRRILRRLL-NH2 [SP10-8]	1.0/1.0 μg/ml
LRIIRRILRRLI-NH2 [SP10-6]	1.0/1.0 μg/ml

Query: Please report the measured LC, lethal concentration (100% inhibition) for LRFLKKILKHLF-NH2 [SP10, LRFLKKILKHLF -NH2]
Response: 2.5/2.5 μg/ml

Query: Please report the measured LC, lethal concentration (100% inhibition) for LRKLKKILKKLF-NH2 [SP10-10]
Response: 1.0 µg/mL

Query: Please report the measured LC, lethal concentration (100% inhibition) for LRFLKKILKKLF-NH2 [SP10-1]
Response: 1.0/1.0 μg/ml

Query: Please report the measured LC, lethal concentration (100% inhibition) for LRKAKKIAKKLF-NH2 [SP10-11]
Response: 0.5/0.5 μg/ml

Query: Please report the measured LC, lethal concentration (100% inhibition) for LRFIKKILKKLI-NH2 [SP10-4]
Response: 1.0/1.0 μg/ml

Query: Please report the measured LC, lethal concentration (100% inhibition) for LRFARRALRRLF-NH2 [SP10-9]
Response: 0.5 µg/mL

----------
test system: Pseudomonas corrugata; test: MIC and lethal concentration (Example 3); format: cell-based; details: 1-2 days at 25° C., Table 2
No end group written: not given here.
Readout: MIC (>90% inhibition)

// solved cases for MIC (>90% inhibition) follow
LRKLKKILKKLF-NH2 [SP10-10]	0.25/0.25 μg/ml
LRFLKKILKKLF-NH2 [SP10-1]	2.5/2.5 μg/ml
LRKAKKIAKKLF-NH2 [SP10-11]	0.5/0.5 μg/ml

Query: Please report the measured MIC (>90% inhibition) for LRFIKKILKKLI-NH2 [SP10-4]
Response: 2.5/2.5 μg/ml

Query: Please report the measured MIC (>90% inhibition) for LRIIRRILRRLI-NH2 [SP10-6]
Response: 2.5/2.5 μg/ml

Query: Please report the measured MIC (>90% inhibition) for LRILRRLLRRLF-NH2 [SP10-7]
Response: 2.5/2.5 μg/ml

Query: Please report the measured MIC (>90% inhibition) for LRFLKKALKKLF-NH2 [SP10-2]
Response: 0.5/0.5 μg/ml

----------
system: Pseudomonas syringae pv. syringae; test: MIC and lethal concentration (Example 3); type: cell-based; settings: 1-2 days at 25° C., Table 2
No end group written: not given here.
Recorded MIC (>90% inhibition) by entry

// solved cases for MIC (>90% inhibition) follow
LRILRRLLRRLF-NH2 [SP10-7]	>10/>10 μg/ml
LRFLRRILRRLL-NH2 [SP10-8]	0.5/0.5 μg/ml
LRIIRRILRRLI-NH2 [SP10-6]	2.5/2.5 μg/ml
LRFLKKILKKLF-NH2 [SP10-1]	2.5/2.5 μg/ml

Query substance follows.
Query: Please report the measured MIC (>90% inhibition) for LRIIKKILKKLI-NH2 [SP10-5]
Response: 0.5/0.5 μg/ml

----------
Recorded LC, lethal concentration (100% inhibition) by entry
tested on: Pseudomonas syringae pv. tomato; assay: MIC and lethal concentration (Example 3); format: cell-based; details: at least 4 days of incubation, Table 2
No end group written: not given here.

// solved cases for LC, lethal concentration (100% inhibition) follow
LRFLKKALKKLF-NH2 [SP10-2]	0.5/0.5 μg/ml
LRIIKKILKKLI-NH2 [SP10-5]	0.5 µg/mL

Query: Please report the measured LC, lethal concentration (100% inhibition) for LRFAKKALKKLF-NH2 [SP10-3]
Response: 0.25/0.25 μg/ml
